system: T1, LRP6 E1E2 protein (human, UniProt O75581 20-630, limits assumed)
T1 construct: domain: E1E2
T1 sequence (looked up): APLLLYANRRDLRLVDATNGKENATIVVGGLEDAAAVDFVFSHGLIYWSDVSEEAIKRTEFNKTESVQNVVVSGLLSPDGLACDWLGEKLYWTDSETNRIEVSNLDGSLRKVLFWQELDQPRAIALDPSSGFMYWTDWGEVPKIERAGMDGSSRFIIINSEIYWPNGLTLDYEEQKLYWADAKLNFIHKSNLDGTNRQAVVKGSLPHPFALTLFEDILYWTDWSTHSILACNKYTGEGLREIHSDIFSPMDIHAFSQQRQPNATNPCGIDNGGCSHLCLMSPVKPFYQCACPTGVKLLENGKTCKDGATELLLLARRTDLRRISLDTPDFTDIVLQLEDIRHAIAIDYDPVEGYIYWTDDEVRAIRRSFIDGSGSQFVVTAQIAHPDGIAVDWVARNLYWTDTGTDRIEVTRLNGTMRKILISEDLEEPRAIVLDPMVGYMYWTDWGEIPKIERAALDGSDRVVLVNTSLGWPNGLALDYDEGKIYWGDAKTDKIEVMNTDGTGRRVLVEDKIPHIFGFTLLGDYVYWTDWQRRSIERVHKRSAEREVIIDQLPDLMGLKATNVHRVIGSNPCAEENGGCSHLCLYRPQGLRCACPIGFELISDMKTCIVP
experiment: spot phage ELISA
Consider the following binders; for each one, report its S/N vs BSA.
One number for each entry.

Consider the worked cases shown below.
INSERT INTO results (binder, observable, observedvalue) VALUES
  ('GCVSNRVNKGCKQDSDCLAGCVCGPNGFCG (designed binder) [LRP6_CKP7]', 'S/N vs BSA', 29),
  ('GCNRIRNSCKQDSDCLAGCVCGRGDYCG (designed binder) [LRP6_CKP15]', 'S/N vs BSA', 26.3),
  ('GCRGNIIKCKQDSDCLAGCVCNESRGCG (designed binder) [LRP6_CKP8]', 'S/N vs BSA', 37.6),
  ('GCRSGNTIRKRECKQDSDCLAGCVCGGPGGCG (designed binder) [LRP6_CKP9]', 'S/N vs BSA', 37.6),
  ('GCMNHVKARRCKQDSDCLAGCVCGPNGFCG (designed binder) [LRP6_CKP3]', 'S/N vs BSA', 40.2);

Fill in S/N vs BSA for each of the 7 binders listed.
1. GCVNKIKGCKQDSDCLAGCVCGVEGRCG (designed binder) [LRP6_CKP5]
2. GCVNRVRGCKQDSDCLAGCVCSGGRDCG (designed binder) [LRP6_CKP2]
3. GCRANRVSGRCKQDSDCLAGCVCGPNGFCG (designed binder) [LRP6_CKP18]
4. GCRTNRVKGGCKQDSDCLAGCVCGPNGFCG (designed binder) [LRP6_CKP1]
5. GCSRNSIKCKQDSDCLAGCVCASGSSCG (designed binder) [LRP6_CKP16]
6. GCSNYVKRCKQDSDCLAGCVCSPGGRCG (designed binder) [LRP6_CKP17]
7. GCVNSVKRCKQDSDCLAGCVCSRGVNCG (designed binder) [LRP6_CKP13]

### Response
[35.7, 41.6, 18.3, 45.5, 31.1, 35.9, 37.8]

Fill in S/N vs BSA for each of the 2 binders listed.
1. GCENRTKGCKQDSDCLAGCVCGFRGTCG (designed binder) [LRP6_CKP20]
2. GCRSNKLREARGCKQDSDCLAGCVCGSRQDCG (designed binder) [LRP6_CKP12]

### Response
38.7
6.78
